tgt: HLA-B*46:01
measurement.protocol: IEDB peptide-MHC binding, purified MHC/competitive/fluorescence; filed as Kd, often an IC50 or EC50 that approximates it; bounds were set here for any values at or beyond the usual limits of such assays
stated.conditions: source organism: Yersinia pestis Nepal516
pKd: −log10 of the molar value.

>  <sequence.string>
SMLCWLGMT

>  <pKd>
≤ 4.70

$$$$

====

tgt: HLA-B*44:02
measurement.protocol: IEDB peptide-MHC binding, purified MHC/competitive/radioactivity; filed as Kd, often an IC50 or EC50 that approximates it; bounds were set here for any values at or beyond the usual limits of such assays
stated.conditions: source organism: Dengue virus 4 Philippines/H241/1956
pKd: −log10 of the molar value.
test.readout: pKd

>  <sequence.string>
GEGLHRLGY

>  <numeric.result>
7.94

$$$$

====

tgt: HLA-B*07:02
measurement.protocol: IEDB peptide-MHC binding, purified MHC/competitive/fluorescence; bounds were set here for any values at or beyond the usual limits of such assays
stated.conditions: source organism: Zaire ebolavirus
Overview of reported IC50 across a group of sequences:

>  <sequence.string>
AAVSHLTTL

>  <IC50>
21.7 µM

$$$$
>  <sequence.string>
RRTRREAIV

>  <IC50>
37.7 µM

$$$$
>  <sequence.string>
RLAKLTEAI

>  <IC50>
≥ 217 µM

$$$$
>  <sequence.string>
ENTNTSKST

>  <IC50>
≥ 200 µM

$$$$

====

tgt: HLA-A*31:01
measurement.protocol: IEDB peptide-MHC binding, purified MHC/direct/fluorescence; filed as Kd, often an IC50 or EC50 that approximates it; bounds were set here for any values at or beyond the usual limits of such assays
stated.conditions: source organism: La Crosse virus
test.readout: Kd

>  <sequence.string>
YRKPSGGVF

>  <result>
≥ 20 µM

$$$$

====

tgt: HLA-B*40:01
measurement.protocol: IEDB peptide-MHC binding, purified MHC/direct/fluorescence; filed as Kd, often an IC50 or EC50 that approximates it; bounds were set here for any values at or beyond the usual limits of such assays
stated.conditions: source organism: Escherichia coli 536

>  <sequence.string>
RMYGISPWT

>  <Kd>
≥ 20 µM

$$$$

====

Overview of reported pKd across a group of sequences:
tgt: HLA-B*53:01
measurement.protocol: IEDB peptide-MHC binding, purified MHC/competitive/radioactivity; filed as Kd, often an IC50 or EC50 that approximates it; bounds were set here for any values at or beyond the usual limits of such assays
stated.conditions: source organism: Dengue virus 4 Philippines/H241/1956
pKd: −log10 of the molar value.

>  <sequence.string>
MAILGETAW

>  <pKd>
8.15

$$$$
>  <sequence.string>
FPQSNSPIED

>  <pKd>
5.74

$$$$
>  <sequence.string>
LIGLSSRATW

>  <pKd>
6.42

$$$$

====

tgt: HLA-A*11:01
measurement.protocol: IEDB peptide-MHC binding, purified MHC/direct/fluorescence; filed as Kd, often an IC50 or EC50 that approximates it; bounds were set here for any values at or beyond the usual limits of such assays
stated.conditions: source organism: Mycobacterium tuberculosis C
pKd: −log10 of the molar value.

>  <sequence.string>
FPRYPLNVL

>  <pKd>
≤ 4.70

$$$$

====

tgt: HLA-A*26:02
measurement.protocol: IEDB peptide-MHC binding, purified MHC/direct/fluorescence; filed as Kd, often an IC50 or EC50 that approximates it; bounds were set here for any values at or beyond the usual limits of such assays
stated.conditions: source organism: West Nile virus strain PTRoxo

>  <sequence.string>
DTITNVTTM

>  <tgt>
HLA-A*26:02

>  <Kd>
≤ 1 nM

$$$$

====

tgt: HLA-A*11:01
measurement.protocol: IEDB peptide-MHC binding, purified MHC/competitive/fluorescence; bounds were set here for any values at or beyond the usual limits of such assays
stated.conditions: source organism: Sudan ebolavirus
pIC50: −log10 of the molar value.

>  <sequence.string>
AAGIAWIPY

>  <pIC50>
4.53

$$$$
>  <sequence.string>
AQHSTTLFK

>  <pIC50>
6.00

$$$$

====

tgt: HLA-B*07:02
measurement.protocol: IEDB peptide-MHC binding, purified MHC/direct/fluorescence; filed as Kd, often an IC50 or EC50 that approximates it; bounds were set here for any values at or beyond the usual limits of such assays
stated.conditions: source organism: Ebola virus - Mayinga, Zaire, 1976

>  <sequence.string>
SRTPSGKRL

>  <tgt>
HLA-B*07:02

>  <Kd>
≥ 20 µM

$$$$

====

tgt: HLA-A*69:01
measurement.protocol: IEDB peptide-MHC binding, purified MHC/direct/fluorescence; filed as Kd, often an IC50 or EC50 that approximates it; bounds were set here for any values at or beyond the usual limits of such assays
stated.conditions: source organism: Entamoeba histolytica HM-1:IMSS
Overview of reported Kd across a group of sequences:

>  <sequence.string>
NISLPLYTV

>  <unit.label>
nM

>  <Kd>
8.5

$$$$
>  <sequence.string>
ETMKPAAMV

>  <unit.label>
nM

>  <Kd>
1.5

$$$$

====

tgt: HLA-A*26:02
measurement.protocol: IEDB peptide-MHC binding, purified MHC/competitive/fluorescence; filed as Kd, often an IC50 or EC50 that approximates it; bounds were set here for any values at or beyond the usual limits of such assays
stated.conditions: source organism: Human immunodeficiency virus 1
pKd: −log10 of the molar value.
Overview of reported pKd across a group of sequences:
test.readout: pKd

>  <sequence.string>
KSLFNTIAVLY

>  <tgt>
HLA-A*26:02

>  <prefix.operator>
=

>  <numeric.result>
5.96

$$$$
>  <sequence.string>
EIKSLFNTI

>  <tgt>
HLA-A*26:02

>  <prefix.operator>
≤

>  <numeric.result>
4.70

$$$$

====

tgt: HLA-B*27:05
measurement.protocol: IEDB peptide-MHC binding, purified MHC/direct/fluorescence; filed as Kd, often an IC50 or EC50 that approximates it; bounds were set here for any values at or beyond the usual limits of such assays
stated.conditions: source organism: Corynebacterium efficiens

>  <sequence.string>
ITWETPMIW

>  <Kd>
≥ 20 µM

$$$$

====

tgt: HLA-A*68:02
measurement.protocol: IEDB peptide-MHC binding, purified MHC/direct/fluorescence; filed as Kd, often an IC50 or EC50 that approximates it; bounds were set here for any values at or beyond the usual limits of such assays
stated.conditions: source organism: Marburg virus - Musoke, Kenya, 1980

>  <sequence.string>
LFLSFCSLF

>  <Kd>
≥ 20 µM

$$$$
>  <sequence.string>
CVFKFIVAK

>  <Kd>
≥ 20 µM

$$$$

====

tgt: HLA-C*05:01
measurement.protocol: IEDB peptide-MHC binding, purified MHC/direct/fluorescence; filed as Kd, often an IC50 or EC50 that approximates it; bounds were set here for any values at or beyond the usual limits of such assays
stated.conditions: source organism: Bacillus cereus
pKd: −log10 of the molar value.
test.readout: pKd

>  <sequence.string>
MSDIFASEV

>  <result>
≥ 9.00

$$$$

====

tgt: HLA-B*08:02
measurement.protocol: IEDB peptide-MHC binding, purified MHC/direct/fluorescence; filed as Kd, often an IC50 or EC50 that approximates it; bounds were set here for any values at or beyond the usual limits of such assays
stated.conditions: source organism: Mycobacterium tuberculosis str. Haarlem
test.readout: Kd

>  <sequence.string>
ALFDRPAFK

>  <test.readout>
Kd

>  <result>
≥ 20 µM

$$$$

====

tgt: HLA-A*24:02
measurement.protocol: IEDB peptide-MHC binding, purified MHC/competitive/fluorescence; bounds were set here for any values at or beyond the usual limits of such assays
stated.conditions: source organism: Vaccinia virus WR
Overview of reported IC50 across a group of sequences:
test.readout: IC50 (µM)

>  <sequence.string>
SINVEYRFL

>  <tgt>
HLA-A*24:02

>  <unit.label>
µM

>  <numeric.result>
27.7

$$$$
>  <sequence.string>
CMIRWLGGI

>  <tgt>
HLA-A*24:02

>  <unit.label>
µM

>  <numeric.result>
4

$$$$
>  <sequence.string>
LGADLDAVI

>  <tgt>
HLA-A*24:02

>  <unit.label>
µM

>  <numeric.result>
7.66

$$$$

====

Overview of reported Kd across a group of sequences:
tgt: HLA-A*26:01
measurement.protocol: IEDB peptide-MHC binding, purified MHC/competitive/fluorescence; filed as Kd, often an IC50 or EC50 that approximates it; bounds were set here for any values at or beyond the usual limits of such assays
stated.conditions: source organism: Burkholderia mallei SAVP1

>  <sequence.string>
RLDARLQVL

>  <Kd>
≥ 20 µM

$$$$
>  <sequence.string>
RFNAIWFNH

>  <Kd>
≥ 20 µM

$$$$

====

tgt: HLA-B*57:01
measurement.protocol: IEDB peptide-MHC binding, purified MHC/direct/fluorescence; filed as Kd, often an IC50 or EC50 that approximates it; bounds were set here for any values at or beyond the usual limits of such assays
stated.conditions: source organism: Buffalopox virus
test.readout: Kd

>  <sequence.string>
RYPGVMYAF

>  <result>
≥ 20 µM

$$$$

Values from the Immune Epitope Database (IEDB)
